Data export: IC50 values recorded with PIK3CG (human) (UniProt P48736).
Sequence (P48736 whole entry, looked up): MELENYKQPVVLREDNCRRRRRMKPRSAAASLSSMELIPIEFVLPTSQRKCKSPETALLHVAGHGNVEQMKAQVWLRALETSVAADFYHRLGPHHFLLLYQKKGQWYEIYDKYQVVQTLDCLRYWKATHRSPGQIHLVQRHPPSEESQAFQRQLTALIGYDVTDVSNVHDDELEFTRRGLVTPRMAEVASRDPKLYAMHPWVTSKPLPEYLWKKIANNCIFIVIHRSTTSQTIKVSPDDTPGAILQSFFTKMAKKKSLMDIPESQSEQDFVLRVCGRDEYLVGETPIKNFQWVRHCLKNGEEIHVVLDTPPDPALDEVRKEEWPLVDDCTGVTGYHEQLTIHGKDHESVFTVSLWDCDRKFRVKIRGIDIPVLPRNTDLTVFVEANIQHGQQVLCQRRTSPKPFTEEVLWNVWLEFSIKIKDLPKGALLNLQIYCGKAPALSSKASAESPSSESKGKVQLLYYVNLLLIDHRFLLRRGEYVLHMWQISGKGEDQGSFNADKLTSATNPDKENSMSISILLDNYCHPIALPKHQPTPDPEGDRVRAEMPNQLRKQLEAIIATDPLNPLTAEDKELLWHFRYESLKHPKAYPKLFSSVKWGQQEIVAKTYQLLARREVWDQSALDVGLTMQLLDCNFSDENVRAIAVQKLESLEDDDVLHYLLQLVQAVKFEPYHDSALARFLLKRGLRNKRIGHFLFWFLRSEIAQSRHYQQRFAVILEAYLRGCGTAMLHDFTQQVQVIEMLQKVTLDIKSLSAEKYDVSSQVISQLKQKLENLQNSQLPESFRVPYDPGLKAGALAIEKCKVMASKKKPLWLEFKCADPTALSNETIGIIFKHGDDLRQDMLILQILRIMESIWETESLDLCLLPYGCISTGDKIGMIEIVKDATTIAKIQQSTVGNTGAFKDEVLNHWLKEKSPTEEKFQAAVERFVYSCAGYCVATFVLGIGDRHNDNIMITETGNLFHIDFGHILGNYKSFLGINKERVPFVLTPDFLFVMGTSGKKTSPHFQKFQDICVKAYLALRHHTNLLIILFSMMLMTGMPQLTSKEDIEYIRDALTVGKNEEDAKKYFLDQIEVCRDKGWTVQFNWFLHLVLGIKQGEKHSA

# structure-as-smiles, IC50
records = [
    ("COc1cnc(-c2cccc3cc([C@H](C)Nc4nc(N)ncc4C#N)n(-c4ccccc4)c(=O)c23)nc1", "100 to 1000 nM"),
    ("C[C@H](Nc1nc(N)ncc1-c1cccc(S(=O)(=O)N(C)C)c1)c1cc2cccc(Cl)c2c(=O)n1-c1ccccc1", "< 100 nM"),
    ("C[C@H](Nc1nc(N)ncc1C#N)c1cc2cccc(-c3ccnnc3)c2c(=O)n1-c1ccccc1", "100 to 1000 nM"),
    ("C[C@H](Nc1nc(N)ncc1C#N)c1cc2cccc(-c3cncc(F)c3)c2c(=O)n1-c1ccccc1", "< 100 nM"),
]

---

pIC50 values by entry
biological target: PIK3CD (Human); test: Assessment of PIK3CD Kinase Activity
pIC50: −log10 of the molar value.
attribute-measured: pIC50

# structure-as-smiles, observed-measurement
records = [
    ("C[C@H](Nc1nc(N)ncc1C(=O)N(C)C)c1cc2cccc(-c3cnn(C)c3)c2c(=O)n1-c1ccccc1", "> 7.00"),
    ("COc1cc(-c2cccc3cc([C@H](C)Nc4nc(N)ncc4[N+](=O)[O-])n(-c4ccccc4)c(=O)c23)ccn1", "> 7.00"),
    ("C[C@H](Nc1nc(N)ncc1C#N)c1cc2cccc(Cl)c2c(=O)n1C", "6.00 to 7.00"),
    ("C[C@H](Nc1nc(N)ncc1C#N)c1cc2cccc(-c3ccc(=O)n(C4CCOCC4)c3)c2c(=O)n1-c1ccccc1", "> 7.00"),
]

---

biological target: PIK3CA (human); experiment: Assessment of PIK3CA Kinase Activity

# structure-as-smiles, measurement-target, IC50
data = [
    ("CC(=O)Nc1cnc(N)nc1N[C@@H](C)c1cc2cccc(Cl)c2c(=O)n1-c1ccccc1", "PIK3CA (human)", "> 10 µM"),
    ("C[C@H](Nc1nc(N)ncc1C#N)c1cc2cccc(C#CCCC(=O)N3CCOCC3)c2c(=O)n1-c1ccccc1", "PIK3CA (human)", "0.1 to 1 µM"),
    ("C[C@H](Nc1nc(N)ncc1C#N)c1cc2cccc(Cl)c2c(=O)n1-c1ccc(C#N)cc1", "PIK3CA (human)", "> 10 µM"),
    ("C[C@H](Nc1nc(N)ncc1C#N)c1cc2cccc(-c3ccnnc3)c2c(=O)n1C1CC1", "PIK3CA (human)", "> 10 µM"),
    ("C[C@H](Nc1ncnc(Cl)c1[N+](=O)[O-])c1cc2cccc(Cl)c2c(=O)n1-c1ccccc1", "PIK3CA (human)", "> 10 µM"),
    ("COc1cc(-c2cccc3cc([C@H](C)Nc4nc(N)ncc4C(=O)N(C)OC)n(-c4ccccc4)c(=O)c23)ccn1", "PIK3CA (human)", "> 10 µM"),
    ("C[C@H](Nc1nc(N)ncc1-c1cccc(S(=O)(=O)N(C)C)c1)c1cc2cccc(Cl)c2c(=O)n1-c1ccccc1", "PIK3CA (human)", "0.1 to 1 µM"),
    ("C[C@H](Nc1nc(N)ncc1C#N)c1cc2cccc(Cl)c2c(=O)n1-c1c(F)cc(F)cc1F", "PIK3CA (human)", "> 10 µM"),
]

---

biological target: PIK3CA (human); assay: Assessment of PIK3CA Kinase Activity

# structure-as-smiles, IC50
records = [
    ("COc1ncc(-c2cccc3cc([C@H](C)Nc4nc(N)ncc4C(F)(F)F)n(-c4ccccc4)c(=O)c23)cn1", "> 10 µM"),
    ("COc1cc(-c2cccc3cc([C@H](C)Nc4nc(N)ncc4C(=O)N4CCC4)n(-c4ccccc4)c(=O)c23)ccn1", "> 10 µM"),
    ("C[C@H](Nc1nc(N)ncc1-c1cccc(S(=O)(=O)N2CCCCC2)c1)c1cc2cccc(Cl)c2c(=O)n1-c1ccccc1", "0.1 to 1 µM"),
    ("CC(C)Oc1cncc(-c2cccc3cc([C@H](C)Nc4nc(N)ncc4C#N)n(-c4ccccc4)c(=O)c23)c1", "< 0.1 µM"),
    ("C[C@H](Nc1nc(N)ncc1-c1cccc(NS(=O)(=O)N(C)C)c1)c1cc2cccc(Cl)c2c(=O)n1-c1ccccc1", "> 10 µM"),
    ("C[C@H](Nc1nc(N)ncc1C#N)c1cc2cccc(Cl)c2c(=O)n1C1CC1", "> 10 µM"),
    ("C[C@H](Nc1nc(N)ncc1C(=O)N1CCC1)c1cc2cccc(-c3cnn(C)c3)c2c(=O)n1-c1ccccc1", "> 10 µM"),
    ("COc1cc(-c2cccc3cc([C@H](C)Nc4nc(N)ncc4-c4ccc(O)c(F)c4)n(-c4ccccc4)c(=O)c23)ccn1", "> 10 µM"),
]

---

molecular target: PIK3CB (Human) (UniProt P42338); test: Assessment of PIK3CB Kinase Activity
Sequence (P42338 whole entry, looked up): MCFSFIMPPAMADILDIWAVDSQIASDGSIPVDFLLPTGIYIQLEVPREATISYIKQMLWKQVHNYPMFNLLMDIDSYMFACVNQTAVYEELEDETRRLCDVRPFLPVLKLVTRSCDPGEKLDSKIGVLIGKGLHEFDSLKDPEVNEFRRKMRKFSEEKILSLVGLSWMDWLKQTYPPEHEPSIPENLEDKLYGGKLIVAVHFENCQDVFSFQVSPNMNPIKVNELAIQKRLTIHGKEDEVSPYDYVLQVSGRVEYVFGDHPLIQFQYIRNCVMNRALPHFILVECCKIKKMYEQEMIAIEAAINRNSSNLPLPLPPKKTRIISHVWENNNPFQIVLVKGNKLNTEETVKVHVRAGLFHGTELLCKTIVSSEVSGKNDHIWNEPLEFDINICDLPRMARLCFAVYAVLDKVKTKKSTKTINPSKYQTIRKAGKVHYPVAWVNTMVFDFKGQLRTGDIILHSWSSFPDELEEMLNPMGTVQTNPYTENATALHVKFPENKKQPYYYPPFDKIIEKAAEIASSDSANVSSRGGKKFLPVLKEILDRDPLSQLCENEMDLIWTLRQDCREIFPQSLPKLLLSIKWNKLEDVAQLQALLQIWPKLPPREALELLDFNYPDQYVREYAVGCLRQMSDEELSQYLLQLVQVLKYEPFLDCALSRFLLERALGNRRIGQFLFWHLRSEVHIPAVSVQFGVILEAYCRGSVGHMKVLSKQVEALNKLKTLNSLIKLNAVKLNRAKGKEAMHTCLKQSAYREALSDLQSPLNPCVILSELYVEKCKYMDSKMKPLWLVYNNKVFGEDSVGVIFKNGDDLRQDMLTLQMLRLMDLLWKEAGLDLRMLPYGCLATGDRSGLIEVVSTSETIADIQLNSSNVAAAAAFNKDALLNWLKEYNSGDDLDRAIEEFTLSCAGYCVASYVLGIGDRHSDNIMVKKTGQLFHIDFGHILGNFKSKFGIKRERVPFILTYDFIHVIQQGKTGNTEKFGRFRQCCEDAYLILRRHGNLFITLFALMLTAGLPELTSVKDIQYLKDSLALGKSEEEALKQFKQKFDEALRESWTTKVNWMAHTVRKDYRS
pIC50: −log10 of the molar value.

# structure-as-smiles, pIC50
data = [
    ("COc1cc(-c2cccc3cc([C@H](C)Nc4nc(N)ncc4C(=O)N4CCOCC4)n(-c4ccccc4)c(=O)c23)ccn1", "< 5.00"),
    ("COc1cc(-c2cccc3cc([C@H](C)Nc4nc(N)ncc4-c4ccc(O)c(F)c4)n(-c4ccccc4)c(=O)c23)ccn1", "< 5.00"),
    ("COc1cc(-c2cccc3cc([C@H](C)Nc4nc(N)ncc4C(=O)NC4CC4)n(-c4ccccc4)c(=O)c23)ccn1", "< 5.00"),
    ("CCn1c([C@H](C)Nc2nc(N)ncc2C#N)cc2cccc(Cl)c2c1=O", "> 7.00"),
]

---

target: UniProt:P42336; test: Assessment of PIK3CA Kinase Activity
Sequence (P42336 whole entry, looked up): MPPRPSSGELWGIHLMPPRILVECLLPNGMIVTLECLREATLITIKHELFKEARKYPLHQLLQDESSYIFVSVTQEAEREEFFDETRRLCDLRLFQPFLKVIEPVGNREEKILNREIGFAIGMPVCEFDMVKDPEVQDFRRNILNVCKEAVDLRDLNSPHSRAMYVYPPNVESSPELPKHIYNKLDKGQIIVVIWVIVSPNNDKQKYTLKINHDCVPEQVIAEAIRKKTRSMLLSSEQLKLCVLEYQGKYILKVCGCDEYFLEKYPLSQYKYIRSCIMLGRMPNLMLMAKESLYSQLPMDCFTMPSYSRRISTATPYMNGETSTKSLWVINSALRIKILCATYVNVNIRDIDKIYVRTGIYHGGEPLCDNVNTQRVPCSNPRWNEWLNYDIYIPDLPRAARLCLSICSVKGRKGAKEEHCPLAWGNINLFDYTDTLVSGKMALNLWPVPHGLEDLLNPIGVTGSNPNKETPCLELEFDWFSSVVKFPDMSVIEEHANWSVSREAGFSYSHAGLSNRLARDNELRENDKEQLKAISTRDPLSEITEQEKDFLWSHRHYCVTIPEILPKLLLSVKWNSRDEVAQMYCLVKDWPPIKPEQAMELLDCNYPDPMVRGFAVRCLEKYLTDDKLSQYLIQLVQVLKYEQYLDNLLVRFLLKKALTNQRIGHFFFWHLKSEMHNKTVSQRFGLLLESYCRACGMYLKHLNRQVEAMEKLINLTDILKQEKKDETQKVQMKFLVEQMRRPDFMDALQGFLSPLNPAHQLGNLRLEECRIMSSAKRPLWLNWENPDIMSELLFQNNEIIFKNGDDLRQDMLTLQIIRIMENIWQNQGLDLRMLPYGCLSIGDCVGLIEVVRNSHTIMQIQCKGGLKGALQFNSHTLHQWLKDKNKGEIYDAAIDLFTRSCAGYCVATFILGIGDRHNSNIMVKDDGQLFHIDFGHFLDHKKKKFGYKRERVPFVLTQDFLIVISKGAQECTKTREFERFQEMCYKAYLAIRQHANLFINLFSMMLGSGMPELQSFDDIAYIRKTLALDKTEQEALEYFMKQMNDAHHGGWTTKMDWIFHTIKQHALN
attribute-measured: IC50

# structure-as-smiles, measurement-target, attribute-measured, observed-measurement
records = [
    ("COc1cc(-c2cccc3cc([C@H](C)Nc4nc(N)ncc4C#N)n(C4CC4)c(=O)c23)ccn1", "UniProt:P42336", "IC50", "0.1 to 1 µM"),
    ("C[C@H](Nc1nc(N)ncc1C#N)c1cc2cccc(Cl)c2c(=O)n1-c1cc(F)cc(F)c1", "UniProt:P42336", "IC50", "> 10 µM"),
    ("C[C@H](Nc1nc(N)ncc1C#N)c1cc2cccc(Cl)c2c(=O)n1-c1c(F)cccc1F", "UniProt:P42336", "IC50", "> 10 µM"),
    ("COc1ncc(-c2cccc3cc([C@H](C)Nc4nc(N)ncc4C#N)n(-c4ccon4)c(=O)c23)cn1", "UniProt:P42336", "IC50", "> 10 µM"),
    ("C[C@H](Nc1nc(N)ncc1C#N)c1cc2cccc(Cl)c2c(=O)n1CC(C)(C)C", "UniProt:P42336", "IC50", "> 10 µM"),
]

---

molecular target: UniProtKB P42336; assay: Assessment of PIK3CA Kinase Activity

# structure-as-smiles, IC50
records = [
    ("COc1cc(-c2cccc3cc([C@H](C)Nc4nc(N)ncc4C(=O)N(C)CCO)n(-c4ccccc4)c(=O)c23)ccn1", "> 10 µM"),
    ("C[C@H](Nc1nc(N)ncc1C#N)c1cc2cccc(Cl)c2c(=O)n1Cc1ccccc1", "> 10 µM"),
    ("C[C@H](Nc1nc(N)ncc1C#N)c1cc2cccc(-c3ccnnc3)c2c(=O)n1-c1cccc(F)c1", "> 10 µM"),
    ("CSc1ncc(-c2cnc(N)nc2N[C@@H](C)c2cc3cccc(Cl)c3c(=O)n2-c2ccccc2)s1", "0.1 to 1 µM"),
    ("COc1cc(-c2cccc3cc([C@H](C)Nc4nc(N)ncc4C(=O)O)n(-c4ccccc4)c(=O)c23)ccn1", "> 10 µM"),
    ("CNC(=O)c1cnc(N)nc1N[C@@H](C)c1cc2cccc(-c3ccnc(OC)c3)c2c(=O)n1-c1ccccc1", "0.1 to 1 µM"),
    ("CCN(C)C(=O)c1cnc(N)nc1N[C@@H](C)c1cc2cccc(-c3ccnc(OC)c3)c2c(=O)n1-c1ccccc1", "> 10 µM"),
    ("COc1cc(-c2cccc3cc([C@H](C)Nc4nc(N)ncc4C#N)n(-c4ccccc4)c(=O)c23)cnc1C", "0.1 to 1 µM"),
    ("COc1cc(-c2cccc3cc([C@H](C)Nc4nc(N)ncc4C#N)n(-c4ccccc4)c(=O)c23)cnc1OC", "< 0.1 µM"),
    ("C[C@H](Nc1nc(N)ncc1C#N)c1cc2cccc(Cl)c2c(=O)n1-c1ccc(F)c(F)c1", "> 10 µM"),
    ("C[C@H](Nc1nc(N)ncc1C#N)c1cc2cccc(-c3cccc(N(C)C)c3)c2c(=O)n1-c1ccccc1", "0.1 to 1 µM"),
    ("Cc1ncc(-c2cnc(N)nc2N[C@@H](C)c2cc3cccc(Cl)c3c(=O)n2-c2ccccc2)s1", "> 10 µM"),
    ("C[C@H](Nc1nc(N)ncc1C#N)c1cc2cccc(-c3cnc4ccccc4c3)c2c(=O)n1-c1ccccc1", "< 0.1 µM"),
    ("C[C@H](Nc1nc(N)ncc1C#N)c1cc2cccc(-c3cccc(Cl)c3)c2c(=O)n1-c1ccccc1", "0.1 to 1 µM"),
    ("Cc1ncc(-c2cccc3cc([C@H](C)Nc4nc(N)ncc4C#N)n(C(C)C)c(=O)c23)cn1", "> 10 µM"),
    ("C[C@H](Nc1nc(N)ncc1C#N)c1cc2cccc(-c3ccc(=O)n(C4CCOCC4)c3)c2c(=O)n1-c1ccccc1", "0.1 to 1 µM"),
    ("COc1cc(-c2cccc3cc([C@H](C)Nc4nc(N)ncc4C(=O)N(C)C)n(-c4ccccc4)c(=O)c23)ccn1", "0.1 to 1 µM"),
]
